- subject.of.test: Mitochondrial complex I (NADH dehydrogenase)
- method.description: Inhibition of mitochondrial ETC complex 1 in human T47D cells assessed as inhibition of 1% O2-induced HIF1 activation incubated for 30 mins prior to 1% O2-challenge measured after 16 hrs by luciferase reporter assay
- Type: cell-based
pIC50: −log10 of the molar value.
Cut-off 5 on pIC50, inclusive. At or above means Fulfilled; below means Not fulfilled.

Worked cases, answers included:
molecule	qualitative.label
CC(C)=CCOc1ccc(CCNC(=O)/C=C/c2ccccc2)cc1 [DEHYDROMARMELINE]	Not fulfilled
CCCCCCCC(=O)O[C@H](CC/C(C)=C/COc1ccc2ccc(=O)oc2c1)C(C)(C)O [R-(+)-MARMIN-6'-OCTANOATE]	Fulfilled
CCCCCCCCCCCCCCCC(=O)O[C@H](CC/C(C)=C/COc1ccc2ccc(=O)oc2c1)C(C)(C)O [R-(+)-MARMIN-6'-PALMITATE]	Not fulfilled
CCCCC/C=C\C/C=C\CCCCCCCC(=O)O[C@H](CC/C(C)=C/COc1ccc2ccc(=O)oc2c1)C(C)(C)O [R-(+)-MARMIN-6'-LINOLEATE]	Fulfilled
CCCCCC/C=C\CCCCCCCCCC(=O)O[C@H](CC/C(C)=C/COc1ccc2ccc(=O)oc2c1)C(C)(C)O [R-(+)-MARMIN-6'-CIS-VACCENOATE]	Not fulfilled

**Q:** Given C/C(=C\COc1ccc2ccc(=O)oc2c1)CC[C@@H](O)C(C)(C)O [R-(+)-MARMIN] , state whether its pIC50 is at least 5.
**A:** Not fulfilled

**Q:** Given C/C(=C\COc1ccc2ccc(=O)oc2c1)CC[C@@H](O)C(C)(C)Cl , state whether its pIC50 is at least 5.
**A:** Not fulfilled

**Q:** Given CCCCCCCCCCC(=O)O[C@H](CC/C(C)=C/COc1ccc2ccc(=O)oc2c1)C(C)(C)O [R-(+)-MARMIN-6'-UNDECANOATE] , state whether its pIC50 is at least 5.
**A:** Fulfilled

**Q:** Given COC(C)(C)[C@H](O)CC/C(C)=C/COc1ccc2ccc(=O)oc2c1 , state whether its pIC50 is at least 5.
**A:** Not fulfilled

**Q:** Given COc1cc2ccc(=O)oc2cc1OC/C=C(\C)CCC=C(C)C , state whether its pIC50 is at least 5.
**A:** Not fulfilled
